System: CHRF288-11
Design: species or system AML cell lines (8); Primary HTS, single concentration about 10 uM, Cell Titer Glo viability; log10 luminescence, per cent inhibition relative to cycloheximide control
Details: 72 h, relative to cycloheximide control, log10 luminescence; inhibitor

{"columns": ["compound", "unit.name", "CHRF288-11 %inh"],
 "data": [
  ["CS(=O)(=O)CCn1c(=O)c(Oc2ccc(F)cc2F)cc2cnc(NC3CCOCC3)nc21 [SJ000581023-1]", "%", 8.185],
  ["Nc1[nH]nc2nc(-c3cccs3)cc(C(F)(F)F)c12 [SJ000581105-1]", "%", -1.43],
  ["COc1ccc(C(Cl)=C(c2ccc(OC)cc2)c2ccc(OC)cc2)cc1 [SJ000285822-4, CHLOROTRIANISENE]", "%", -2.199],
  ["Nc1nc(-c2ccccn2)c(-c2ccc3ncccc3n2)s1 [SJ000573278-1, FAMP/256/57/4]", "%", 2.264],
  ["CS(=O)(=O)CCNCc1ccc(-c2ccc3ncnc(Nc4ccc(OCc5cccc(F)c5)c(C(F)(F)F)c4)c3c2)o1 [SJ000573152-1, U14859/108/1]", "%", 2.26],
  ["Nc1c(C(=O)c2cccc(CCCN3CCOCC3)c2)cnn1-c1ccc(F)cc1 [SJ000581033-1]", "%", 0.5002],
  ["COc1cccc(-n2ncc3c(N/N=C/c4ccc(S(C)(=O)=O)cc4)ncnc32)c1 [SJ000573027-1, U18028/92/1]", "%", -7.861],
  ["CCCCCC(=O)O[C@]1(C(C)=O)CC[C@H]2[C@@H]3CCC4=CC(=O)CC[C@]4(C)[C@H]3CC[C@@]21C [SJ000285789-3, HYDROXYPROGESTERONE CAPROATE]", "%", -3.09],
  ["COc1cc2ncn(-c3cc(OCCc4ccccc4)c(C(N)=O)s3)c2cc1OC [SJ000573025-1, U19479/153/8]", "%", 0.4642],
  ["COc1ccccc1-c1cc(/C=C2\\C(=O)Nc3ncc(Br)cc32)cc(Br)c1O [SJ000573253-1, U16719/161/1]", "%", -3.427]
]}

====

System: CHRF288-11
Experiment: cells
Set-up: species or system AML cell lines (8); Secondary HTS, 10-point dose-response in triplicate, Cell Titer Glo viability, four-parameter fit EC50
Conditions: 72 h, read-out: CHRF288-11
In this section, each of the compounds is paired with its reported EC50.

{"columns": ["query.smiles", "EC50"],
 "data": [
  ["CCN1CCN(Cc2ccc(Nc3ncc(F)c(-c4cc(F)c5nc(C)n(C(C)C)c5c4)n3)nc2)CC1", "> 10 µM"],
  ["Cc1cc(I)ccc1Nc1c(C(=O)NOCC2CC2)cc(F)c(F)c1F", "> 10 µM"],
  ["C[C@H]1C[C@H]2[C@@H]3CCC4=CC(=O)C=C[C@]4(C)[C@@]3(F)[C@@H](O)C[C@]2(C)[C@@]1(O)C(=O)CO", "> 10 µM"]
]}

====

Test system: CMK
Test: Secondary dose-response HTS, Cell Titer Glo
Type: cell-based, human
Details: Homo sapiens; secondary high-throughput screen; CMK; read-out: average effective concentration, CMK

{"columns": ["compound", "EC50"],
 "data": [
  ["CO[C@@]12[C@H](COC(N)=O)C3=C(C(=O)C(C)=C(N)C3=O)N1C[C@@H]1N[C@@H]12 [MITOMYCIN C]", "770 nM"],
  ["NC(=O)Nc1cc(-c2cccc(F)c2)sc1C(=O)N[C@H]1CCCNC1 [AZD7762]", "45 nM"],
  ["CS(=O)(=O)N1CCc2c(-c3cnc(N)nc3)nc(N3CCOCC3)nc21 [CH-5132799]", "1500 nM"],
  ["CN(C)C/C=C/C(=O)Nc1cc2c(Nc3ccc(F)c(Cl)c3)ncnc2cc1O[C@H]1CCOC1 [AFATINIB]", "3600 nM"],
  ["CC[C@@H]1C(=O)N(C)c2cnc(Nc3ccc(C(=O)N[C@H]4CC[C@H](N5CCN(CC6CC6)CC5)CC4)cc3OC)nc2N1C(C)C [Volasertib, reference compound]", "15 nM"],
  ["O=C(/C=C/c1ccc(CN(CCO)CCc2c[nH]c3ccccc23)cc1)NO [DACINOSTAT]", "1 nM"],
  ["C[C@]12O[C@H](C[C@]1(O)CO)n1c3ccccc3c3c4c(c5c6ccccc6n2c5c31)CNC4=O [LESTAURTINIB]", "3.3 nM"],
  ["C=CC(=O)N1CCC[C@@H](n2nc(-c3ccc(Oc4ccccc4)cc3)c3c(N)ncnc32)C1 [Ibrutinib, reference compound]", "> 10000 nM"],
  ["CC[C@]1(O)C[C@H]2CN(CCc3c([nH]c4ccccc34)[C@@](C(=O)OC)(c3cc4c(cc3OC)N(C=O)[C@H]3[C@@](O)(C(=O)OC)[C@H](OC(C)=O)[C@]5(CC)C=CCN6CC[C@]43[C@@H]65)C2)C1 [VINCRISTINE]", "> 10000 nM"],
  ["CC(=O)O[C@H]1CC[C@@]2(C)C(=CC[C@@H]3[C@@H]2CC[C@]2(C)C(c4cccnc4)=CC[C@@H]32)C1 [ABIRATERONE ACETATE]", "5300 nM"]
]}

====

System: U937
Design: species or system AML cell lines (8); Primary HTS, single concentration about 10 uM, Cell Titer Glo viability; log10 luminescence, per cent inhibition relative to cycloheximide control
Conditions: 72 h, relative to cycloheximide control, log10 luminescence; inhibitor
As shown below, each of these compounds has a reported U937 %inh value.

{"columns": ["compound", "U937 %inh, %"],
 "data": [
  ["Nc1c(C(=O)c2ccccc2)cnn1-c1ccc(F)cc1", -0.682],
  ["C#Cc1cccc(Nc2ncnc3ccc(OCCCCNCCS(C)(=O)=O)cc23)c1", -0.213],
  ["COC(=O)Nc1nc2ccc(Oc3ccc(NC(=O)Nc4cccc(Cl)c4)cc3)cc2[nH]1", 93.62],
  ["O=C1Nc2ccccc2C1=C1CCc2cc(O)ccc21", 12.06],
  ["Cn1cc(C2=C(c3c[nH]c4ccccc34)C(=O)NC2=O)c2ccccc21", 53.14],
  ["Cn1c(=O)c(Oc2ccc(F)cc2F)cc2cnc(NC(C)(C)CO)nc21", 1.382],
  ["CCc1cccc(CC)c1/C=C/c1cncc(C(=O)NC)c1", 29.57],
  ["CC1(OC(=O)C2CCCC2)C(=O)C=C2C=C(c3ccsc3)N(CCCCO)C=C2C1=O (stereo not drawn)", -0.2771],
  ["O=C1NC(=O)C(c2cccc(Cl)c2)=C1Nc1ccc(O)c(Cl)c1", 3.736],
  ["CCC(=O)O[C@]1(C(=O)CCl)[C@@H](C)C[C@H]2[C@@H]3CCC4=CC(=O)C=C[C@]4(C)[C@@]3(F)[C@@H](O)C[C@@]21C [SJ000286006-4, CLOBETASOL PROPIONATE]", 16.72],
  ["CC1(C)CCC(C)(C)c2cc(C3(c4ccc5cc(C(=O)O)ccc5c4)SCCS3)ccc21", 1.985],
  ["Cn1c(=O)c(Oc2ccc(F)cc2F)cc2cnc(NCCS(C)(=O)=O)nc21", 5.046],
  ["Clc1ccc(-c2nn3ncccc3c2-c2ccnc(Nc3ccccc3)n2)cc1", -1.31],
  ["CNCC1CCn2c(c(C3=C(c4cn(C)c5ccccc45)C(=O)NC3=O)c3ccccc32)C1 (stereo not drawn)", 3.941],
  ["OCc1ccc(-c2nc(-c3ccc4c(c3)OCO4)c(-c3ccccn3)[nH]2)cc1", -3.528],
  ["Cn1cc(C2=C(c3cn(CCCO)c4ccccc34)C(=O)NC2=O)c2ccccc21", 2.993],
  ["Cc1cc(Nc2cc(N3CCN(C)CC3)nc(Sc3ccc(NC(=O)C4CC4)cc3)n2)n[nH]1", 19.84],
  ["Cc1cc(O)cc(C)c1/C=C/c1cncc(C(=O)OC(C)(C)C)c1", -1.9],
  ["NS(=O)(=O)c1ccc(Nc2cc(-c3ccc(O)c(F)c3)n[nH]2)cc1", 0.1443],
  ["COc1ccc2cc1Oc1cc3c(cc1OC)CC[N+](C)(C)[C@H]3Cc1ccc(cc1)Oc1c(OC)c(OC)cc3c1[C@@H](C2)[N+](C)(C)CC3 [SJ000565179-1, METOCURINE IODIDE]", -0.03863],
  ["N#Cc1c(NC(=O)c2ccc(F)cc2)sc2c1CCCC2", 2.356]
]}

====

Measured CMK %inh of individual entries
Test system: CMK
Design: species or system AML cell lines (8); Primary HTS, single concentration about 10 uM, Cell Titer Glo viability; log10 luminescence, per cent inhibition relative to cycloheximide control
Conditions: 72 h, relative to cycloheximide control, log10 luminescence; inhibitor
Counter-ions that a name gives are not always drawn.
recorded.metric: CMK %inh (%)

{"columns": ["molecule", "experimental.system", "reported.result"],
 "data": [
  ["Nc1[nH]nc2nnc(-c3c(-c4ccccc4)nn4ccccc34)cc12", "CMK", 2.552],
  ["COCCCC/C(=N\\OCCN)c1ccc(C(F)(F)F)cc1 [SJ000287487-5, FLUVOXAMINE MALEATE]", "CMK", -1.719],
  ["Cn1cc(C2=C(c3ccc4ccccc4c3)C(=O)NC2=O)c2ccccc21", "CMK", 22.8],
  ["CC(=O)O[C@]1(C(C)=O)CC[C@H]2[C@@H]3C=C(Cl)C4=CC(=O)[C@@H]5C[C@@H]5[C@]4(C)[C@H]3CC[C@@]21C [SJ000286483-6, CYPROTERONE ACETATE]", "CMK", -1.818],
  ["COC(=O)c1ccc2c(c1)C(=Cc1cc(Br)c(O)c(Br)c1)C(=O)N2", "CMK", 10.16],
  ["FC(F)(F)c1cccc(Nc2nccc(-c3cnn4nc(-c5ccccc5)ccc34)n2)c1", "CMK", 0.1975]
]}
